assay: Pharmacokinetics study in CD-1 mice (IV, PO); format: in vivo; conditions: CD-1, mouse, plasma, po, 5 mg/kg, PO 5 mg/kg, time point 2, individual animals A-D
Measured Endpoint: concentration at 2 h (ng/mL)

• Cc1ccc(F)cc1C[C@H](C)Nc1cc[nH]c(=O)c1-c1nc2cc3c(cc2[nH]1)C(=O)N(CCN1CCCC1)C3 = 1.47

* * *

assay: Partition Coefficient (Log D, n-octanol/PBS, pH 7.4); type: physicochemical; conditions: 1.0E−04 M, read-out: Partition Coefficient Log D, Weighed Average of Three Replicates
Where a name gives a salt, the structure may show the parent alone.
Measured Endpoint: logD

- COCCc1ccc(OCC(O)CNC(C)C)cc1 (stereo not drawn) [Metoprolol tartrate]: -0.46
- CO[C@H]1/C=C/O[C@@]2(C)Oc3c(C)c(O)c4c(O)c(c(/C=N/N5CCN(C)CC5)c(O)c4c3C2=O)NC(=O)/C(C)=C\C=C\[C@H](C)[C@H](O)[C@@H](C)[C@@H](O)[C@@H](C)[C@H](OC(C)=O)[C@@H]1C [Rifampicin]: 1.23

* * *

assay: Liver microsome stability, Rat LM-P1; assay type: in vitro ADME; conditions: liver microsomes
// reported half-life per item
Measured Endpoint: half-life (min)

- C[C@@H](Cc1cc(F)cc(F)c1F)Nc1cc[nH]c(=O)c1-c1nc2cc3c(cc2[nH]1)CN(CCN1CCCC1)C3=O [drawing 369]: 5
- Cc1ccc(F)cc1C[C@H](C)Nc1cc[nH]c(=O)c1-c1nc2cc3c(cc2[nH]1)C(=O)N(CCN1CCCC1)C3 [drawing 368]: 8.71
- C[C@@H](Cc1c(F)c(F)cc(F)c1F)Nc1cc[nH]c(=O)c1-c1nc2cc3c(cc2[nH]1)CN(CCN1CCCC1)C3=O [drawing 370]: 4.36

* * *

target: ALK (Homo sapiens, UniProt Q9UM73); experiment: ALK kinase assay (Kinase-Glo / AlphaScreen, purified NPM-ALK); type: biochemical; parameters: fused to the complete intracytoplasmic portion of ALK containing the functional tyrosine kinase domain; 6xHis; made in house; host or cells: insect cells; the other entry of the earlier key: NPM1 (P06748, Nucleophosmin); details: Table 2; read-out: Enzymatic ALK IC50;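 also: recombinant baculovirus-expressed ALK kinase domain, activity read either as leftover ATP by Kinase-Glo luminescence or as poly(Glu-Tyr) phosphorylation by anti-phosphotyrosine AlphaScreen proximity signal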
Sequence (Q9UM73 with tags, fused parts or gaps): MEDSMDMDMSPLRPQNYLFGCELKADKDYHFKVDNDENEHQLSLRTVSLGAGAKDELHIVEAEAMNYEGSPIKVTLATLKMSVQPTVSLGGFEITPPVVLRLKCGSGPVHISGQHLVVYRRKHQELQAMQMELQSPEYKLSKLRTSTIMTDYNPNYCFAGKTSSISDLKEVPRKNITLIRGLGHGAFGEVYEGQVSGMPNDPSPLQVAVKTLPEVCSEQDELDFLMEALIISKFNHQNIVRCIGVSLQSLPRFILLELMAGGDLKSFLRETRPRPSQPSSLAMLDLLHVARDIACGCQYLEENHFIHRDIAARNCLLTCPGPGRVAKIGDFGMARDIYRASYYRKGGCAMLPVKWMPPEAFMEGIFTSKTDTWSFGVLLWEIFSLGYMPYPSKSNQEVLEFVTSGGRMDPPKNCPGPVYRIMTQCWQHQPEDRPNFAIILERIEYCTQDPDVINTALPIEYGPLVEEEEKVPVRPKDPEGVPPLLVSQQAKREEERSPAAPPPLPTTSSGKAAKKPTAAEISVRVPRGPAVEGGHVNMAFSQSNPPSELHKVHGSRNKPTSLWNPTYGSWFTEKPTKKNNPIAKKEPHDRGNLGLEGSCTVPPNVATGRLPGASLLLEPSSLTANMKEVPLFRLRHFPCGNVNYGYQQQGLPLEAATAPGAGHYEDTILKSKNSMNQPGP
pIC50: −log10 of the molar value.
Measured Endpoint: pIC50

- C[C@@H](Cc1c(F)c(F)cc(F)c1F)Nc1cc[nH]c(=O)c1-c1nc2cc3c(cc2[nH]1)CN(CCN1CCCC1)C3=O [drawing 352]: > 8.00
- C[C@@H]1CCCN1CCN1Cc2cc3[nH]c(-c4c(N[C@@H](C)Cc5cc(F)cc(F)c5F)cc[nH]c4=O)nc3cc2C1=O [drawing 353]: > 8.00
- C[C@@H](Cc1cc(F)cc(F)c1F)Nc1cc[nH]c(=O)c1-c1nc2cc3c(cc2[nH]1)CN(CCN(C)C)C3=O [drawing 356]: > 8.00
- Cc1ccc(F)cc1C[C@H](C)Nc1cc[nH]c(=O)c1-c1nc2cc3c(cc2[nH]1)C(=O)N(CCN1CCCC1)C3 [drawing 350]: > 8.00
- Cc1ccc(F)cc1C[C@H](C)Nc1cc[nH]c(=O)c1-c1nc2cc3c(cc2[nH]1)CN(CCN(C)C)C3=O [drawing 357]: > 8.00
- C[C@@H](Cc1cc(F)ccc1Br)Nc1cc[nH]c(=O)c1-c1nc2cc3c(cc2[nH]1)CN(CCN1CCCC1)C3=O [drawing 359]: 7.00 to 8.00

* * *

molecular target: IGF1R (Homo sapiens, UniProt P08069); construct: 6×His- or GST-tagged kinase domain fragments of the corresponding RTKs expressed in baculovirus system; host or cells: baculovirus system; experiment: IGF1R kinase assay; format: biochemical; conditions: Table 2; read-out: Enzymatic IGF1R IC50
Sequence (P08069 999-1274 limits assumed): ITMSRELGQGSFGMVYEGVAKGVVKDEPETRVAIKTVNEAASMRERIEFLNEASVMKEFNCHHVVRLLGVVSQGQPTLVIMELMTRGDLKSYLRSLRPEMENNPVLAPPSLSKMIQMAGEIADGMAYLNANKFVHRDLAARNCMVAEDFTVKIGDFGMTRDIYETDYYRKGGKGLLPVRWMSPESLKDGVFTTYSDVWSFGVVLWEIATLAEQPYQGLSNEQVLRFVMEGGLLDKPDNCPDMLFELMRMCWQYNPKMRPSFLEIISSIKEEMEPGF
pIC50: −log10 of the molar value.
Catalogue of pIC50 readings, one per entry.
Measured Endpoint: pIC50

- C[C@@H](Cc1cc(F)cc(F)c1F)Nc1cc[nH]c(=O)c1-c1nc2cc3c(cc2[nH]1)CN(CCN1CCCC1)C3=O [drawing 358]: 6.00 to 6.60
- Cc1ccc(F)cc1C[C@H](C)Nc1cc[nH]c(=O)c1-c1nc2cc3c(cc2[nH]1)CN(CCN1CCC[C@H]1C)C3=O [drawing 354]: < 6.00
- C[C@@H](Cc1cc(F)ccc1Br)Nc1cc[nH]c(=O)c1-c1nc2cc3c(cc2[nH]1)CN(CCN1CCCC1)C3=O [drawing 359]: 6.00 to 6.60
- Cc1ccc(F)cc1C[C@H](C)Nc1cc[nH]c(=O)c1-c1nc2cc3c(cc2[nH]1)C(=O)N(CCN1CCCC1)C3 [drawing 350]: 6.60 to 7.00
- C[C@@H](Cc1c(F)c(F)cc(F)c1F)Nc1cc[nH]c(=O)c1-c1nc2cc3c(cc2[nH]1)CN(CCN1CCCC1)C3=O [drawing 352]: < 6.00
- Cc1ccc(F)cc1C[C@H](C)Nc1cc[nH]c(=O)c1-c1nc2cc3c(cc2[nH]1)CN(CCN(C)C)C3=O [drawing 357]: 6.60 to 7.00
- Cc1ccc(F)cc1C[C@H](C)Nc1cc[nH]c(=O)c1-c1nc2c(C)c3c(cc2[nH]1)CN(CCN1CCCC1)C3=O [drawing 351]: 6.60 to 7.00

* * *

The entries below are paired with their reported IC50.
target: ALK (Homo sapiens); assay: ALK kinase assay (Kinase-Glo / AlphaScreen, purified NPM-ALK); type: biochemical; set-up: fused to the complete intracytoplasmic portion of ALK containing the functional tyrosine kinase domain; 6xHis; made in house; host or cells: insect cells; the other entry of the earlier key: NPM1 (P06748, Nucleophosmin); settings: Table 1; read-out: ALK IC50
Measured Endpoint: IC50

* CC(Cc1cccs1)Nc1cc[nH]c(=O)c1-c1nc2cc3c(cc2[nH]1)CN(CCCN1CCCC1)C3=O (stereo not shown) | 0.1 to 0.25 µM
* Cc1ccc(C(F)(F)F)cc1C[C@H](C)Nc1cc[nH]c(=O)c1-c1nc2cc3c(cc2[nH]1)CN(CCN1CCOCC1)C3=O | 0.25 to 1 µM
* CC(Cc1ccccc1F)Nc1cc[nH]c(=O)c1-c1nc2cc3c(cc2[nH]1)C(=O)N(CCCN1CCCC1)C3 (stereo not shown) | 0.1 to 0.25 µM
* Cc1ccc(C(F)(F)F)cc1C[C@H](C)Nc1cc[nH]c(=O)c1-c1nc2cc3c(cc2[nH]1)CN(CCN1CCCC1)C3=O | > 1 µM
* Cc1noc(C)c1CC(C)Nc1cc[nH]c(=O)c1-c1nc2cc3c(cc2[nH]1)C(=O)N(CCCN1CCCC1)C3 (stereo not shown) | > 1 µM
* CCN1CCC[C@@H]1CN1Cc2cc3nc(-c4c(N[C@@H](C)Cc5sccc5C)cc[nH]c4=O)[nH]c3cc2C1=O | 0.1 to 0.25 µM
* C[C@@H](Cc1ccco1)Nc1cc[nH]c(=O)c1-c1nc2cc3c(cc2[nH]1)CN(CCN1CCCC1)C3=O | 0.1 to 0.25 µM
* CC(Cc1ccsc1)Nc1cc[nH]c(=O)c1-c1nc2cc3c(cc2[nH]1)C(=O)N(CCCN1CCCC1)C3=O (stereo not shown) | 0.1 to 0.25 µM
* COC[C@H](Cc1ccccc1)Nc1cc[nH]c(=O)c1-c1nc2cc3c(cc2[nH]1)C(=O)N(C1CCN(C)CC1)C3=O | > 1 µM
* C[C@@H](Cc1cccs1)Nc1cc[nH]c(=O)c1-c1nc2cc3c(cc2[nH]1)C(=O)N(CCCN(C)C)C3 | 0.1 to 0.25 µM
* CCN1CCC[C@H]1CN1Cc2cc3nc(-c4c(N[C@@H](C)Cc5sccc5C)cc[nH]c4=O)[nH]c3cc2C1=O | 0.01 to 0.1 µM
* CNCCN1Cc2cc3[nH]c(-c4c(N[C@@H](C)Cc5cc(F)ccc5C)cc[nH]c4=O)nc3cc2C1=O [drawing 348] | 0.25 to 1 µM
* Cc1cc(C)c(CC(C)Nc2cc[nH]c(=O)c2-c2nc3cc4c(cc3[nH]2)C(=O)N(CCCN2CCCC2)C4)s1 (stereo not shown) | > 1 µM
* Cc1c(C[C@H](C)Nc2cc[nH]c(=O)c2-c2nc3cc4c(cc3[nH]2)CN(CCN(C)C)C4=O)ccc(F)c1F | > 1 µM
* COC[C@@H](Cc1ccccc1)Nc1cc[nH]c(=O)c1-c1nc2cc3c(cc2[nH]1)C(=O)N(C1CCN(C)CC1)C3=O | > 1 µM
* Cc1c(F)cc(F)cc1C[C@H](C)Nc1cc[nH]c(=O)c1-c1nc2cc3c(cc2[nH]1)CN(CCN1CCCC1)C3=O | > 1 µM

* * *

assay: Pharmacokinetics study in CD-1 mice (IV, PO); assay type: in vivo; conditions: CD-1, mouse, plasma, iv, 1 mg/kg, IV 1 mg/kg, CD-1 mice, Mean; read-out: AUC(0-t)
Measured Endpoint: AUC(0-t) (ng·h/mL)

* Cc1ccc(F)cc1C[C@H](C)Nc1cc[nH]c(=O)c1-c1nc2cc3c(cc2[nH]1)C(=O)N(CCN1CCCC1)C3 [compound (II)] | 102

Origin of values: patent US9249147B2
